Listed here: items and their measured pIC50.
system: phosphorylation of AKT (pAKT) in T47D cells expressing mutant PI3Ka (H1047R); assay: In vitro cell pAKT (Ser473) HTRF, T47D cells; format: cell-based; conditions: cellular pAKT, T47D cells, mutant PI3Ka (H1047R), 6 hours; read-out: Avg T-47D IC50
pIC50: −log10 of the molar value.

Example results:
| MOLECULE | MEASURED PARAMETER | READING |
| --- | --- | --- |
| Cc1cc(C(C)Nc2ccccc2C(=O)O)c2cc(N3CCS(=O)(=O)CC3)n(C)c(=O)c2c1 (single isomer, unassigned) [Example 151] | pIC50 | < 4.82 |
| Cc1cc(C(CF)Nc2ccccc2C(=O)O)c2cc(N3CCN(CC(F)(F)F)CC3)n(C)c(=O)c2c1 (single isomer, unassigned) [Example 37] | pIC50 | 4.82 to 5.70 |
| Cc1cc(C(C)Nc2ccccc2C(=O)O)c2cc(N3CC(c4ccccc4)C3)n(C)c(=O)c2c1 (single isomer, unassigned) [Example 77] | pIC50 | 6.30 to 9.00 |
| Cc1cc([C@@H](C)Nc2ccccc2C(=O)O)c2cc(N3CC(C)(C#N)C3)n(C)c(=O)c2c1 | pIC50 | 6.30 to 9.00 |
| Cc1cc(C(C)Nc2cccc(F)c2C(=O)O)c2cc(-c3ccc(COC(F)(F)F)nc3)n(C)c(=O)c2c1 (stereo not shown) | pIC50 | 6.30 to 9.00 |
| Cc1cc(C(C)Nc2ccccc2C(=O)O)c2cc(N3Cc4cccnc4C3)n(C)c(=O)c2c1 (single isomer, unassigned) [Example 18] | pIC50 | < 4.82 |

Recorded pIC50 for Cc1cc(C(C)Nc2ccccc2C(=O)O)c2cc(N3Cc4cccc(C(F)(F)F)c4C3)n(C)c(=O)c2c1 (stereo not shown) [Example 67] with phosphorylation of AKT (pAKT) in T47D cells expressing mutant PI3Ka (H1047R), please?
6.30 to 9.00

Provide value of pIC50 for this record tested with phosphorylation of AKT (pAKT) in T47D cells expressing mutant PI3Ka (H1047R): Cc1cc([C@@H](C)Nc2ccc(F)cc2C(=O)O)c2cc(N3CCN(CC(F)(F)F)CC3)n(C)c(=O)c2c1
6.30 to 9.00

Observed pIC50 on phosphorylation of AKT (pAKT) in T47D cells expressing mutant PI3Ka (H1047R) for C[C@@H](Nc1ccccc1C(=O)O)c1cc(F)cc2c(=O)n(C)c(-c3ccc(OC4COC4)nc3)cc12 , please.
6.30 to 9.00

Form field - read-out: pIC50; system: phosphorylation of AKT (pAKT) in T47D cells expressing mutant PI3Ka (H1047R); submitted item: Cc1ccc(N[C@H](C)c2cc(F)cc3c(=O)n(C)c(-c4ccc(OCC(F)(F)F)nc4)cc23)c(C(=O)O)n1
6.30 to 9.00

Given the entry Cc1cc([C@@H](C)Nc2ccccc2C(=O)O)c2cc([C@H]3C[C@@H]3C(C)(C)O)n(C)c(=O)c2c1 (single isomer, unassigned) , what pIC50 was observed with phosphorylation of AKT (pAKT) in T47D cells expressing mutant PI3Ka (H1047R)?
6.30 to 9.00

// fetch phosphorylation of AKT (pAKT) in T47D cells expressing mutant PI3Ka (H1047R) pIC50 for Cc1ncc(-c2ncc(-c3cc4c(C(C)Nc5ccccc5C(=O)O)cc(F)cc4c(=O)n3C)cc2F)cc1F (stereo not shown)
6.30 to 9.00

Look up pIC50 with phosphorylation of AKT (pAKT) in T47D cells expressing mutant PI3Ka (H1047R) for this molecule: COCCC(=O)N1CCN(c2cc3c(C(C)Nc4ccccc4C(=O)O)cc(C)cc3c(=O)n2C)CC1 (single isomer, unassigned) [Example 113]
5.70 to 6.30

# value lookup — system phosphorylation of AKT (pAKT) in T47D cells expressing mutant PI3Ka (H1047R), readout pIC50, item CC(=O)N1CCC2(CC1)CCN(c1cc3c(C(C)Nc4ccccc4C(=O)O)cc(C)cc3c(=O)n1C)CC2 (single isomer, unassigned) [Example 136]
6.30 to 9.00

Form field - read-out: pIC50; system: phosphorylation of AKT (pAKT) in T47D cells expressing mutant PI3Ka (H1047R); submitted item: CC(Nc1ccccc1C(=O)O)c1cc(F)cc2c(=O)n(C)c(N3CCN(CC(F)(F)F)CC3)c(F)c12 (single isomer, unassigned) [Example 572]
6.30 to 9.00

Param readout= pIC50; system= phosphorylation of AKT (pAKT) in T47D cells expressing mutant PI3Ka (H1047R); entry= C[C@@H](Nc1ccccc1C(=O)O)c1cc(F)cc2c(=O)n(C)c(C3C[C@@H]3C3CC3)cc12 (single isomer, unassigned) ; returns value.
6.30 to 9.00

Form field: pIC50 recorded for COC1(C)CCN(c2cc3c(C(C)Nc4ccccc4C(=O)O)cc(C)cc3c(=O)n2C)CC1 (single isomer, unassigned) [Example 154] with phosphorylation of AKT (pAKT) in T47D cells expressing mutant PI3Ka (H1047R) (enter value)
< 4.82

Requested read-out pIC50, target or system phosphorylation of AKT (pAKT) in T47D cells expressing mutant PI3Ka (H1047R), entry Cc1cc(C(C)Nc2ccccc2C(=O)O)c2cc(N3CCS(=O)(=O)CC3)n(C)c(=O)c2c1 (single isomer, unassigned) [Example 150]
4.82 to 5.70

Form field - read-out: pIC50; system: phosphorylation of AKT (pAKT) in T47D cells expressing mutant PI3Ka (H1047R); submitted item: Cc1cc(C(C)Nc2ccccc2C(=O)O)c2cc(-c3ccc(N4CCOCC4)nc3)n(C)c(=O)c2c1 (single isomer, unassigned) [Example 487]
6.30 to 9.00

Short answer please: pIC50, phosphorylation of AKT (pAKT) in T47D cells expressing mutant PI3Ka (H1047R), entry Cc1cc(C(C)Nc2ccc(Cl)nc2C(=O)O)c2cc(N3Cc4ccc(F)cc4C3)n(C)c(=O)c2c1 (single isomer, unassigned) [Example 127]
< 4.82

Form: Entry = C#Cc1ccc(N[C@H](C)c2cc(C)cc3c(=O)n(C)c(-c4cnc(C(F)(F)F)nc4)cc23)c(C(=O)O)n1 | System = phosphorylation of AKT (pAKT) in T47D cells expressing mutant PI3Ka (H1047R) | pIC50 = ____
6.30 to 9.00

Lab request: please report pIC50 under test system phosphorylation of AKT (pAKT) in T47D cells expressing mutant PI3Ka (H1047R) for Cc1cc([C@@H](C)Nc2ccccc2C(=O)O)c2cc(N3CCN(c4cccc(C)n4)CC3)n(C)c(=O)c2c1
6.30 to 9.00

---

Listed below: IC50 values for each entry.
system: phosphorylation of AKT (pAKT) in T47D cells expressing mutant PI3Ka (H1047R); experiment: In vitro cell pAKT (Ser473) HTRF, T47D cells; assay type: cell-based; conditions: Homo sapiens, T47D, 6 h, cellular pAKT, T47D cells, mutant PI3Ka (H1047R), 6 hours; read-out: Avg T-47D IC50

| MOLECULE | IC50 |
| --- | --- |
| Cc1cc([C@@H](C)Nc2ccccc2C(=O)O)c2cc(N3CCN(C=O)CC3)n(C)c(=O)c2c1 [Example 499] | 500 to 2000 nM |
| Cc1cc([C@@H](C)Nc2ccccc2C(=O)O)c2cc(N3CCN(c4ncnn4C)CC3)n(C)c(=O)c2c1 [Example 198] | 500 to 2000 nM |
| C[C@@H](Nc1ccccc1C(=O)O)c1cc(F)cc2c(=O)n(C)c(-c3cnc(C4(C5CC5)CC4)nc3)cc12 [Example 47] | 1 to 500 nM |

Give the measured IC50 of Cc1cc([C@@H](C)Nc2ccccc2C(=O)O)c2cc(-c3cnc(C)cc3C)n(C)c(=O)c2c1 [Example 223] .
1 to 500 nM

Param item = Cc1cc([C@@H](C)Nc2cccc(F)c2C(=O)O)c2cc(N3CCN(c4cc(C)ncn4)CC3)n(C)c(=O)c2c1 [Example 328] ; retrieve measured IC50.
500 to 2000 nM

Can you share its IC50? I mean this molecule: Cc1cc([C@@H](C)Nc2ccccc2C(=O)O)c2cc(N3CC(CC(F)(F)F)C3)n(C)c(=O)c2c1 [Example 405]
1 to 500 nM

---

system: phosphorylation of AKT (pAKT) in T47D cells expressing mutant PI3Ka (H1047R); experiment: In vitro cell pAKT (Ser473) HTRF, T47D cells; assay type: cell-based; settings: cellular pAKT, T47D cells, mutant PI3Ka (H1047R), 6 hours; read-out: Avg T-47D IC50
MEASURED PARAMETER: IC50

Quick one: IC50 for COC(C)(C)c1ncc(-c2cc3c([C@@H](C)Nc4ccccc4C(=O)O)cc(C)cc3c(=O)n2C)cc1F ?
1 to 500 nM

Using the record for Cc1cc(C(C)Nc2ccccc2C(=O)O)c2cc(N3CCC4(CCCCO4)CC3)n(C)c(=O)c2c1 (single isomer, unassigned) [Example 169] , report its IC50.
2000 to 15000 nM

Returns the measured IC50 for the input compound. Input: Cc1cc(C(C)Nc2ccccc2C(=O)O)c2cc(N3C[C@@H]4CCCC[C@H]4C3)n(C)c(=O)c2c1 (single isomer, unassigned) [Example 114]
> 15000 nM

For the compound shown here, COc1ncccc1N1CCN(c2cc3c([C@@H](C)Nc4ccccc4C(=O)O)cc(C)cc3c(=O)n2C)CC1 , give the reported IC50.
1 to 500 nM

I would be grateful if you could share the reported IC50 for Cc1cc(C(C)Nc2ccccc2C(=O)O)c2cc(N3Cc4ccncc4C3)n(C)c(=O)c2c1 (single isomer, unassigned) [Example 106] .
> 15000 nM

Need IC50 of Cc1cc(C(C)Nc2ccccc2C(=O)O)c2cc(N3CCC4(CCCCO4)CC3)n(C)c(=O)c2c1 (single isomer, unassigned) [Example 168] , thanks.
1 to 500 nM

Entry source: patent US20260078103A1
